Please go through the items and note down their inhibition in vivo at 100 mg/kg.
tested on: Rattus norvegicus; test: Antiinflammatory activity in albino rat assessed as inhibition of carrageenan-induced paw edema at 100 mg/kg, po administered 30 mins prior to challenge measured after 4 hrs relative to untreated control; type: functional
Hey, just the number and the unit after it is fine.

Item under review: CC(Br)C(=O)Nc1ccc(C(=O)/C=C/c2ccco2)cc1 (configuration not stated) . Reported inhibition in vivo at 100 mg/kg?
36%

Item under review: CC(O[N+](=O)[O-])C(=O)Nc1ccc(C(=O)/C=C/c2ccc(Cl)cc2)cc1 (configuration not stated) . Reported inhibition in vivo at 100 mg/kg?
61%

Item under review: O=C(COCc1c(-c2ccccc2)no[n+]1[O-])Nc1ccc(C(=O)/C=C/c2ccc3c(c2)OCO3)cc1 . Reported inhibition in vivo at 100 mg/kg?
72%

Item under review: COc1ccc(/C=C/C(=O)c2ccc(N)cc2)cc1 . Reported inhibition in vivo at 100 mg/kg?
48%

Item under review: COc1ccc2c(c1)c(CC(=O)O)c(C)n2C(=O)c1ccc(Cl)cc1 . Reported inhibition in vivo at 100 mg/kg?
83%

Item under review: CC(=O)c1ccc(OCC(=O)Nc2ccc(C(=O)/C=C/c3ccc4c(c3)OCO4)cc2)cc1 . Reported inhibition in vivo at 100 mg/kg?
53%

Item under review: O=C(CO[N+](=O)[O-])Nc1ccc(C(=O)/C=C/c2ccc3c(c2)OCO3)cc1 . Reported inhibition in vivo at 100 mg/kg?
55%

* * *

assay: Induction of nitric oxide release at 0.1 mM after 2 hrs in phosphate buffer at pH 7.4 by Griess assay; assay type: physicochemical; conditions: pH 7.4, 2 h, 100 µM
Please go through the items and note down their Activity.
Provide only the numeric value, understood in mol/mol.

Item under review: COc1ccc(/C=C/C(=O)c2ccc(NC(=O)COc3ccc(/C(C)=N\O)cc3)cc2)cc1 . Reported Activity?
0.12

Item under review: C/C(=N/O)c1ccc(OCC(=O)Nc2ccc(C(=O)/C=C/c3ccc(Cl)cc3)cc2)cc1 . Reported Activity?
0.19

Item under review: O=C(CO[N+](=O)[O-])Nc1ccc(C(=O)/C=C/c2ccc3c(c2)OCO3)cc1 . Reported Activity?
0.45

Item under review: O=C(COCc1c(-c2ccccc2)no[n+]1[O-])Nc1ccc(C(=O)/C=C/c2ccc(Cl)cc2)cc1 . Reported Activity?
0.98

Item under review: COc1ccc(/C=C/C(=O)c2ccc(NC(=O)CO[N+](=O)[O-])cc2)cc1 . Reported Activity?
0.31

Item under review: COc1ccc(/C=C/C(=O)c2ccc(NC(=O)C(C)O[N+](=O)[O-])cc2)cc1 (stereo not drawn) . Reported Activity?
0.12

Item under review: O=C(COCc1c(-c2ccccc2)no[n+]1[O-])Nc1ccc(C(=O)/C=C/c2ccc3c(c2)OCO3)cc1 . Reported Activity?
0.71

Item under review: O=C(CO[N+](=O)[O-])Nc1ccc(C(=O)/C=C/c2ccco2)cc1 . Reported Activity?
0.28

* * *

Please go through the items and note down their inhibition in vivo at 100 mg/kg.
test system: Rattus norvegicus; experiment: Antiinflammatory activity in albino rat assessed as inhibition of carrageenan-induced paw edema at 100 mg/kg, po administered 30 mins prior to challenge measured after 4 hrs relative to untreated control; type: functional
Provide only the numeric value, understood in %.

Item under review: COc1ccc(/C=C/C(=O)c2ccc(NC(=O)COc3ccc(/C(C)=N\O)cc3)cc2)cc1 . Reported inhibition in vivo at 100 mg/kg?
42

Item under review: C/C(=N/O)c1ccc(OCC(=O)Nc2ccc(C(=O)/C=C/c3ccc4c(c3)OCO4)cc2)cc1 . Reported inhibition in vivo at 100 mg/kg?
52

Item under review: COc1ccc(/C=C/C(=O)c2ccc(NC(=O)C(C)Br)cc2)cc1 (stereo not given) . Reported inhibition in vivo at 100 mg/kg?
38

Item under review: O=C(COCc1c(-c2ccccc2)no[n+]1[O-])Nc1ccc(C(=O)/C=C/c2ccco2)cc1 . Reported inhibition in vivo at 100 mg/kg?
58

Item under review: Nc1ccc(C(=O)/C=C/c2ccco2)cc1 . Reported inhibition in vivo at 100 mg/kg?
33

* * *

Please go through the items and note down their Activity.
assay: Induction of nitric oxide release at 0.1 mM after 4 hrs in phosphate buffer at pH 7.4 by Griess assay; assay type: physicochemical; conditions: pH 7.4, 4 h, 100 µM
Provide only the numeric value, understood in mol/mol.

Item under review: COc1ccc(/C=C/C(=O)c2ccc(NC(=O)COCc3c(-c4ccccc4)no[n+]3[O-])cc2)cc1 . Reported Activity?
0.482

Item under review: CC(O[N+](=O)[O-])C(=O)Nc1ccc(C(=O)/C=C/c2ccc3c(c2)OCO3)cc1 (stereo not given) . Reported Activity?
0.28

Item under review: O=C(CO[N+](=O)[O-])Nc1ccc(C(=O)/C=C/c2ccc3c(c2)OCO3)cc1 . Reported Activity?
0.64

Item under review: C/C(=N/O)c1ccc(OCC(=O)Nc2ccc(C(=O)/C=C/c3ccco3)cc2)cc1 . Reported Activity?
0.28

Item under review: C/C(=N/O)c1ccc(OCC(=O)Nc2ccc(C(=O)/C=C/c3ccc4c(c3)OCO4)cc2)cc1 . Reported Activity?
0.31

* * *

Please go through the items and note down their inhibition in vivo at 100 mg/kg.
test system: Rattus norvegicus; assay: Antiinflammatory activity in albino rat assessed as inhibition of carrageenan-induced paw edema at 100 mg/kg, po administered 30 mins prior to challenge measured after 2 hrs relative to untreated control; assay type: functional
Provide only the numeric value, understood in %.

Item under review: CC(O[N+](=O)[O-])C(=O)Nc1ccc(C(=O)/C=C/c2ccc3c(c2)OCO3)cc1 (centres undefined) . Reported inhibition in vivo at 100 mg/kg?
40

Item under review: O=C(COCc1c(-c2ccccc2)no[n+]1[O-])Nc1ccc(C(=O)/C=C/c2ccc3c(c2)OCO3)cc1 . Reported inhibition in vivo at 100 mg/kg?
55

Item under review: O=C(CBr)Nc1ccc(C(=O)/C=C/c2ccc(Cl)cc2)cc1 . Reported inhibition in vivo at 100 mg/kg?
52

Item under review: COc1ccc2c(c1)c(CC(=O)O)c(C)n2C(=O)c1ccc(Cl)cc1 [INDOMETHACIN] . Reported inhibition in vivo at 100 mg/kg?
70

Item under review: CC(Br)C(=O)Nc1ccc(C(=O)/C=C/c2ccc(Cl)cc2)cc1 (centres undefined) . Reported inhibition in vivo at 100 mg/kg?
45

Item under review: O=C(COCc1c(-c2ccccc2)no[n+]1[O-])Nc1ccc(C(=O)/C=C/c2ccc(Cl)cc2)cc1 . Reported inhibition in vivo at 100 mg/kg?
48

Item under review: COc1ccc(/C=C/C(=O)c2ccc(NC(=O)COc3ccc(C(C)=O)cc3)cc2)cc1 . Reported inhibition in vivo at 100 mg/kg?
35

Item under review: O=C(CO[N+](=O)[O-])Nc1ccc(C(=O)/C=C/c2ccc3c(c2)OCO3)cc1 . Reported inhibition in vivo at 100 mg/kg?
45

Item under review: CC(O[N+](=O)[O-])C(=O)Nc1ccc(C(=O)/C=C/c2ccco2)cc1 (centres undefined) . Reported inhibition in vivo at 100 mg/kg?
48

Item under review: COc1ccc(/C=C/C(=O)c2ccc(NC(=O)CO[N+](=O)[O-])cc2)cc1 . Reported inhibition in vivo at 100 mg/kg?
49

Item under review: COc1ccc(/C=C/C(=O)c2ccc(NC(=O)CBr)cc2)cc1 . Reported inhibition in vivo at 100 mg/kg?
42

Item under review: CC(=O)c1ccc(OCC(=O)Nc2ccc(C(=O)/C=C/c3ccco3)cc2)cc1 . Reported inhibition in vivo at 100 mg/kg?
32

Item under review: O=C(CO[N+](=O)[O-])Nc1ccc(C(=O)/C=C/c2ccc(Cl)cc2)cc1 . Reported inhibition in vivo at 100 mg/kg?
57

Item under review: CC(Br)C(=O)Nc1ccc(C(=O)/C=C/c2ccc3c(c2)OCO3)cc1 (centres undefined) . Reported inhibition in vivo at 100 mg/kg?
43

Item under review: CC(=O)c1ccc(OCC(=O)Nc2ccc(C(=O)/C=C/c3ccc4c(c3)OCO4)cc2)cc1 . Reported inhibition in vivo at 100 mg/kg?
43

Item under review: COc1ccc(/C=C/C(=O)c2ccc(NC(=O)COc3ccc(/C(C)=N\O)cc3)cc2)cc1 . Reported inhibition in vivo at 100 mg/kg?
41

Item under review: COc1ccc(/C=C/C(=O)c2ccc(NC(=O)C(C)Br)cc2)cc1 (centres undefined) . Reported inhibition in vivo at 100 mg/kg?
40

Item under review: O=C(CO[N+](=O)[O-])Nc1ccc(C(=O)/C=C/c2ccco2)cc1 . Reported inhibition in vivo at 100 mg/kg?
36

Item under review: CC(Br)C(=O)Nc1ccc(C(=O)/C=C/c2ccco2)cc1 (centres undefined) . Reported inhibition in vivo at 100 mg/kg?
37

Item under review: O=C(CBr)Nc1ccc(C(=O)/C=C/c2ccco2)cc1 . Reported inhibition in vivo at 100 mg/kg?
37

Item under review: CC(=O)c1ccc(OCC(=O)Nc2ccc(C(=O)/C=C/c3ccc(Cl)cc3)cc2)cc1 . Reported inhibition in vivo at 100 mg/kg?
52

Item under review: Nc1ccc(C(=O)/C=C/c2ccc3c(c2)OCO3)cc1 . Reported inhibition in vivo at 100 mg/kg?
44

Item under review: COc1ccc(/C=C/C(=O)c2ccc(NC(=O)COCc3c(-c4ccccc4)no[n+]3[O-])cc2)cc1 . Reported inhibition in vivo at 100 mg/kg?
42

Item under review: CC(O[N+](=O)[O-])C(=O)Nc1ccc(C(=O)/C=C/c2ccc(Cl)cc2)cc1 (centres undefined) . Reported inhibition in vivo at 100 mg/kg?
55
